test: blocks MITF activity, primary screen, MITF inhibitor project, cell-based, luminescence (AID 2240); settings: TRPM1 promoter luciferase, 24 h, stronger effect = higher value, concentration not given here;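 further: human melanocyte line stably carrying TRPM1 promoter luciferase reporter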
The whole screen tested about 37,000 compounds, of which about 100 (0.27%) were called active. This excerpt belongs to a sample that is enriched for actives.
inhibition for assorted compounds
Reply with just the number (in %).

GET /value?item= COc1ccc(CN(C)C[C@@H]2Oc3ccc(NS(=O)(=O)c4cn(C)cn4)cc3C(=O)N([C@@H](C)CO)C[C@H]2C)cc1 &field=inhibition returns -13

GET /value?item= C[C@H]1CN([C@@H](C)CO)C(=O)Cc2cc(NS(=O)(=O)c3cccs3)ccc2O[C@@H]1CN(C)S(=O)(=O)c1cn(C)cn1 &field=inhibition returns -7.83

GET /value?item= CCc1ccccc1NC(=O)Cn1cnc2scc(-c3ccc(OC)cc3)c2c1=O &field=inhibition returns 27.3

====

assay: blocks MITF activity, primary screen, MITF inhibitor project, cell-based, luminescence (AID 2240); settings: TRPM1 promoter luciferase, 24 h, stronger effect = higher value, concentration not given here;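 further: human melanocyte line stably carrying TRPM1 promoter luciferase reporter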
In all, about 37,000 compounds went through this assay and about 100 (0.27%) were called active. For the sample, actives were picked, then their nearest neighbours and some compounds at random.
inhibition for assorted molecules
Reply with just the number (in %).

Reference set (5 entries):
>  <molecule smiles>
CN(CC(=O)Nc1ccc(Br)cc1)S(=O)(=O)c1ccc2ccccc2c1

>  <unit info>
%

>  <inhibition>
11

$$$$
>  <molecule smiles>
C[C@@H]1CN([C@@H](C)CO)C(=O)c2cccc(NC(=O)Nc3ccccc3)c2O[C@H]1CN(C)Cc1ccccc1

>  <unit info>
%

>  <inhibition>
41.2

$$$$
>  <molecule smiles>
Cc1noc(C)c1NC(=O)Nc1ccc2c(c1)C(=O)N([C@H](C)CO)C[C@H](C)[C@@H](CN(C)C(=O)Nc1ccc(C(F)(F)F)cc1)O2

>  <unit info>
%

>  <inhibition>
-13.6

$$$$
>  <molecule smiles>
Cc1noc(C)c1S(=O)(=O)N(C)C[C@H]1Oc2ccc(NC(=O)CCN3CCOCC3)cc2CC(=O)N([C@H](C)CO)C[C@H]1C

>  <unit info>
%

>  <inhibition>
10.6

$$$$
>  <molecule smiles>
O=C(OC1=CC(=O)c2cccc3cccc1c23)c1ccccc1

>  <unit info>
%

>  <inhibition>
26.1

$$$$

GET /value?item= CS(=O)(=O)N(CC(=O)Nc1cc(C(F)(F)F)ccc1Cl)c1ccccc1Br &field=inhibition returns -1.7

====

experiment: blocks MITF activity, primary screen, MITF inhibitor project, cell-based, luminescence (AID 2240); settings: TRPM1 promoter luciferase, 24 h, stronger effect = higher value, concentration not given here;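 further: human melanocyte line stably carrying TRPM1 promoter luciferase reporter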
Out of some 37,000 compounds screened, about 100 (0.27%) were called active. For the sample, actives were picked, then their nearest neighbours and some compounds at random.
inhibition for assorted compounds
Reply with just the number (in %).

Reference set (6 entries):
>  <molecule smiles>
CC(C)(C)c1ccc(S(=O)(=O)NCC(=O)Nc2ccc(F)cc2)cc1

>  <unit info>
%

>  <inhibition>
1.01

$$$$
>  <molecule smiles>
CCc1ccc2c(c1)c1nc3ccccc3nc1n2CC(=O)OC

>  <unit info>
%

>  <inhibition>
-10.5

$$$$
>  <molecule smiles>
Cc1nn(-c2ccccc2)c(CC(C)(C)C(=O)O)c1C(=O)O

>  <unit info>
%

>  <inhibition>
-5.62

$$$$
>  <molecule smiles>
Cc1ccc(NC(=O)c2cccc(N(C)C)c2)cc1NC(=O)c1ccc(O)cc1

>  <unit info>
%

>  <inhibition>
-40.4

$$$$
>  <molecule smiles>
C[C@@H]1CN([C@@H](C)CO)C(=O)Cc2cc(NC(=O)Cc3ccccc3)ccc2O[C@@H]1CN(C)Cc1ccc2c(c1)OCO2

>  <unit info>
%

>  <inhibition>
4.15

$$$$
>  <molecule smiles>
C[C@@H]1CN([C@H](C)CO)C(=O)c2cc(NS(=O)(=O)c3cccs3)ccc2O[C@@H]1CN(C)Cc1ccc(C(F)(F)F)cc1

>  <unit info>
%

>  <inhibition>
-1.87

$$$$

Okay, now this compound:
GET /value?item= Cc1ccc(NC(=O)CSc2nc3ccccc3s2)cc1[N+](=O)[O-] &field=inhibition returns -10

====

assay: blocks MITF activity, primary screen, MITF inhibitor project, cell-based, luminescence (AID 2240); settings: TRPM1 promoter luciferase, 24 h, stronger effect = higher value, concentration not given here;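 further: human melanocyte line stably carrying TRPM1 promoter luciferase reporter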
Out of some 37,000 compounds screened, about 100 (0.27%) were called active. What follows is part of a selection rich in actives, with near analogues and random picks from the rest.
experimental endpoint: inhibition (%)
Reply with just the number (in %).

>  <molecule smiles>
C[C@H]1CN([C@@H](C)CO)C(=O)Cc2cc(NC(=O)Nc3ccccc3)ccc2O[C@H]1CN(C)S(=O)(=O)c1cn(C)cn1

>  <number>
-4.73

$$$$
>  <molecule smiles>
COc1cc(CO)cc(Cl)c1OCc1cccc([N+](=O)[O-])c1

>  <number>
-30.9

$$$$
>  <molecule smiles>
C[C@H]1CN([C@@H](C)CO)C(=O)Cc2cc(NC(=O)C3CC3)ccc2O[C@H]1CN(C)C(=O)Nc1ccc(C(F)(F)F)cc1

>  <number>
-4.89

$$$$

GET /value?item= C[C@@H]1CN([C@H](C)CO)C(=O)c2cc(NS(=O)(=O)c3cn(C)cn3)ccc2O[C@H]1CN(C)S(=O)(=O)c1ccc(Cl)cc1 &field=inhibition returns -0.174

GET /value?item= O=C(CSc1nnc(-c2ccc(Br)cc2)o1)Nc1ccc2ccccc2c1 &field=inhibition returns -4.41

The reported numbers originate from PubChem BioAssay AID2240.
